experimental protocol: In vivo biodistribution of radiolabeled complexes in normal athymic mice
assay conditions: non-tumor bearing mice, 24.00 hr; ± SD
outcome measure: percent injected dose per gram, Heart (% ID/g)
Reply with just the number (in % ID/g).

Q: Provide only the value of recorded percent injected dose per gram, Heart for O=C(O)CNC(Cc1ccc([N+](=O)[O-])cc1)CN1CCN(CC(=O)O)CCN(CC(=O)O)CC1.[153Gd] (stereo not shown) [^153Gd-C-NE3TA]
Result: 0.13

Q: Provide only the value of recorded percent injected dose per gram, Heart for O=C(O)CNC(Cc1ccc([N+](=O)[O-])cc1)CN1CCN(CC(=O)O)CCN(CC(=O)O)CC1.[90Y] (stereo not shown) [^90Y-C-NE3TA]
Result: 0.02

Q: Provide only the value of recorded percent injected dose per gram, Heart for O=C([O-])CNC(Cc1ccc([N+](=O)[O-])cc1)CN1CCN(CC(=O)[O-])CCN(CC(=O)[O-])CC1.[Bi+3] (stereo not shown)
Result: 0.08

Q: Provide only the value of recorded percent injected dose per gram, Heart for O=C(O)CNC(Cc1ccc([N+](=O)[O-])cc1)CN1CCN(CC(=O)O)CCN(CC(=O)O)CC1.[177Lu] (stereo not shown) [^177Lu-C-NE3TA]
Result: 0.02

---

experimental protocol: In vivo biodistribution of radiolabeled complexes in normal athymic mice
assay conditions: non-tumor bearing mice, 1.00 hr; ± SD
Procedure: The in vivo stability of the radiolabeled complexes was evaluated by performing biodistribution studies in normal athymic mice. Selected organs and the blood were harvested at five time points, 0.5, 1, 4, 8, and 24 h post-injection and the radioactivity measured. […] C-NE3TA radiolabeled with ^153Gd was almost completely cleared from blood, liver, spleen, lung, heart, and femur in less than 4 hours, and radioactivity level in the kidney was 0.16%±0.11 ID/g at 24 hour post-injection (Table 9). […]
Record form. Attribute: percent injected dose per gram, Heart. Fill in for each entry.
Reply with just the number (in % ID/g).

Q: Provide only the value of recorded percent injected dose per gram, Heart for O=C(O)CNC(Cc1ccc([N+](=O)[O-])cc1)CN1CCN(CC(=O)O)CCN(CC(=O)O)CC1.[90Y] (stereo not shown) [^90Y-C-NE3TA]
Result: 0.38

Q: Provide only the value of recorded percent injected dose per gram, Heart for O=C(O)CNC(Cc1ccc([N+](=O)[O-])cc1)CN1CCN(CC(=O)O)CCN(CC(=O)O)CC1.[177Lu] (stereo not shown) [^177Lu-C-NE3TA]
Result: 0.19

Q: Provide only the value of recorded percent injected dose per gram, Heart for O=C([O-])CNC(Cc1ccc([N+](=O)[O-])cc1)CN1CCN(CC(=O)[O-])CCN(CC(=O)[O-])CC1.[Bi+3] (stereo not shown)
Result: 0.19

Q: Provide only the value of recorded percent injected dose per gram, Heart for O=C(O)CNC(Cc1ccc([N+](=O)[O-])cc1)CN1CCN(CC(=O)O)CCN(CC(=O)O)CC1.[153Gd] (stereo not shown) [^153Gd-C-NE3TA]
Result: 0.14

---

experimental protocol: In vivo biodistribution of radiolabeled complexes in normal athymic mice
assay conditions: non-tumor bearing mice, 4.00 hr; ± SD
outcome measure: percent injected dose per gram, Heart (% ID/g)
Reply with just the number (in % ID/g).

Q: Provide only the value of recorded percent injected dose per gram, Heart for O=C(O)CNC(Cc1ccc([N+](=O)[O-])cc1)CN1CCN(CC(=O)O)CCN(CC(=O)O)CC1.[153Gd] (stereo not shown) [^153Gd-C-NE3TA]
Result: 0.01

Q: Provide only the value of recorded percent injected dose per gram, Heart for O=C(O)CNC(Cc1ccc([N+](=O)[O-])cc1)CN1CCN(CC(=O)O)CCN(CC(=O)O)CC1.[177Lu] (stereo not shown) [^177Lu-C-NE3TA]
Result: 0.08

Q: Provide only the value of recorded percent injected dose per gram, Heart for O=C([O-])CNC(Cc1ccc([N+](=O)[O-])cc1)CN1CCN(CC(=O)[O-])CCN(CC(=O)[O-])CC1.[Bi+3] (stereo not shown)
Result: 0.12

Q: Provide only the value of recorded percent injected dose per gram, Heart for O=C(O)CNC(Cc1ccc([N+](=O)[O-])cc1)CN1CCN(CC(=O)O)CCN(CC(=O)O)CC1.[90Y] (stereo not shown) [^90Y-C-NE3TA]
Result: 0.06
